Values were extracted from patent US9856264B2.

Biological target: ROCK kinase
Test: In vitro ROCK kinase inhibition activity evaluation (33P-ATP filter-binding)
Format: biochemical
Settings: 1 nM ROCK kinase, 20 μM Long S6 Kinase substrate peptide, 2 h room temperature
Experimental: Biological Activity Experiment: In Vitro ROCK Kinase Inhibition Activity Evaluation Experimental Objective: Test ROCK Inhibition IC50 Value of Invented Compounds […] To a freshly prepared buffer solution was added ROCK substrate Long S6 Kinase substrate peptide, with concentration at 20 μM. […] The intensity of radiation was measured by Filter-Binding method. The inhibition activity of the testing articles were measured by comparing the residue kinase activity to blank substrate (pure DMSO). […]
pIC50: −log10 of the molar value.
resultType: pIC50

Reference set, count: 3
Cc1cnc(O)c2cccc(S(=O)(=O)N3C[C@@H]4CCN[C@@H]4C3)c12 (stereo in doubt) ... 6.00 to 7.00
O=S(=O)(c1cccc2cnccc12)N1CCC2CCNC2C1 (stereo not shown) ... 5.30 to 6.00
Cc1cncc2cccc(S(=O)(=O)N3C[C@@H]4CCN[C@@H]4C3)c12 ... > 7.00

pIC50 lookup needed for O=S(=O)(c1cccc2cncc(Cl)c12)N1C[C@H]2CNC[C@H]2C1 , thanks. 6.00 to 7.00

Same question, O=S(=O)(c1cccc2cncc(F)c12)N1C[C@H]2CNC[C@H]2C1 this time 6.00 to 7.00

Same question, Cc1cncc2cccc(S(=O)(=O)N3C[C@H]4CN[C@H]4C3)c12 (stereo in doubt) this time > 7.00

====

Parameter: pIC50. Scope: all listed entries.
Biological target: ROCK kinase
Experiment: In vitro ROCK kinase inhibition activity evaluation (33P-ATP filter-binding)
Conditions: 1 nM ROCK kinase, 20 μM Long S6 Kinase substrate peptide, 2 h room temperature
pIC50: −log10 of the molar value.

Reference set, count: 4
O=S(=O)(c1cccc2cncc(Cl)c12)N1CC2CCNCC2C1 (stereo not shown) ... 6.00 to 7.00
O=S(=O)(c1cccc2cnccc12)N1CCC2NCCCCC21 (stereo not shown) ... 6.00 to 7.00
NC12CCC1CN(S(=O)(=O)c1cccc3cnccc13)C2 (stereo not shown) ... 5.30 to 6.00
O=S(=O)(c1cccc2cncc(F)c12)N1C[C@H]2CN[C@H]2C1 (stereo in doubt) ... 6.00 to 7.00

pIC50 lookup needed for COc1cncc2cccc(S(=O)(=O)N3CCC4NCCCC4C3)c12 (stereo not shown) , thanks. 5.30 to 6.00

Same question, O=S(=O)(c1cccc2cncc(Cl)c12)N1CCC2NCCCC2C1 (stereo not shown) this time 6.00 to 7.00

Same question, NC1CCN(S(=O)(=O)c2cccc3cnccc23)C12CC2 (stereo not shown) this time > 7.00

Same question, O=S(=O)(c1cccc2cncc(Cl)c12)N1C[C@H]2CN[C@H]2C1 (stereo in doubt) this time > 7.00

Same question, O=S(=O)(c1cccc2cncc(F)c12)N1CC2CCCNC2C1 (stereo not shown) this time 6.00 to 7.00

Same question, COc1cncc2cccc(S(=O)(=O)N3CC4CCNCC4C3)c12 (stereo not shown) this time 5.30 to 6.00

Same question, COc1cncc2cccc(S(=O)(=O)N3C[C@@H]4CCN[C@@H]4C3)c12 (stereo in doubt) this time 5.30 to 6.00

Same question, O=S(=O)(c1cccc2cncc(Cl)c12)N1C[C@@H]2CCN[C@@H]2C1 (stereo in doubt) this time 6.00 to 7.00

Same question, O=S(=O)(c1cccc2cncc(Cl)c12)N1CCC2NCCCC21 (stereo not shown) this time 6.00 to 7.00

Same question, Cc1cncc2cccc(S(=O)(=O)N3C[C@H]4CNC[C@H]4C3)c12 this time > 7.00

Same question, COc1cncc2cccc(S(=O)(=O)N3CC[C@@H]4NCC[C@@H]43)c12 (stereo in doubt) this time 5.30 to 6.00

Same question, O=S(=O)(c1cccc2cncc(Cl)c12)N1C[C@H]2CCCN[C@H]2C1 (stereo in doubt) this time 6.00 to 7.00

Same question, O=S(=O)(c1cccc2cncc(F)c12)N1C[C@H]2CCCN[C@H]2C1 (stereo in doubt) this time 6.00 to 7.00

Same question, O=S(=O)(c1cccc2cnccc12)N1CC[C@@H]2NCC[C@@H]21 (stereo in doubt) this time 6.00 to 7.00

Same question, O=S(=O)(c1cccc2cnccc12)N1C[C@@H]2CCN[C@@H]2C1 (stereo in doubt) this time 6.00 to 7.00

Same question, O=S(=O)(c1cccc2cncc(Cl)c12)N1CC[C@@H]2NCC[C@@H]21 (stereo in doubt) this time 6.00 to 7.00

Same question, COc1cncc2cccc(S(=O)(=O)N3CCC4NCCCC43)c12 (stereo not shown) this time 5.30 to 6.00

Same question, O=S(=O)(c1cccc2cnccc12)N1C[C@H]2CCCN[C@H]2C1 (stereo in doubt) this time 6.00 to 7.00
